test: Apparent volume of distribution when 3 mg/Kg dose was administered intravenously; format: ADME, organism-based; conditions: rat, in vivo, iv, read-out: Volume distribution
quantity.measured: Vd (L/kg)

CN(C)CCNC(=O)C1=C[C@]2(CC1)CCN(C(=O)c1ccc(NC(=O)c3ccccc3-c3ccccc3)cc1)c1ccccc1C2; 6.84
CN(C)CCNC(=O)C1=C[C@@]2(CC1)CCN(C(=O)c1ccc(NC(=O)c3ccccc3F)cc1)c1ccccc1C2 (single isomer, unassigned); 6.67

* * *

target: UniProt P30518; assay: Evaluated for accumulation of cAMP in transfected HEK293 cells expressing human vasopressin V2 receptor; type: functional, cell-based
Sequence (P30518 whole entry): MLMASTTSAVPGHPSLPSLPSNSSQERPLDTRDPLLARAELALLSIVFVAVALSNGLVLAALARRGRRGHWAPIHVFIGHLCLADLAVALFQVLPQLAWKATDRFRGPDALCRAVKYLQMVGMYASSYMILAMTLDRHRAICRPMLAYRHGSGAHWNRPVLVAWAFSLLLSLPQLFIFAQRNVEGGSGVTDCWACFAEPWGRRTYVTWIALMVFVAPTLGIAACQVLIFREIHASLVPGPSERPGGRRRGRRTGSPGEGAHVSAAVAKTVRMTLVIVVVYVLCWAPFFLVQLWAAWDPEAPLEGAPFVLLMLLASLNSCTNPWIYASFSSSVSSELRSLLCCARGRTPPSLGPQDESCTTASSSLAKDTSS
pIC50: −log10 of the molar value.
quantity.measured: pIC50

[I] Cc1ccc(F)cc1C(=O)Nc1ccc(C(=O)N2CCC3(C=C(C(=O)NCCCN(C)C)CC3)Cc3ccccc32)cc1 (configuration not stated)
[II] Cc1ccc(F)cc1C(=O)Nc1ccc(C(=O)N2CCC3(C=C(C(=O)NCCN(C)C)CC3)Cc3ccccc32)cc1 (configuration not stated)
**Q:** Which value of pIC50 is smaller, the one for I or the one for II ? When you have decided, please share the label of that item.
**A:** II
(II: 6.98, I: 7.51)

[P] Cc1ccc(F)cc1C(=O)Nc1ccc(C(=O)N2CCC3(C=C(C(=O)NCCN4CCCCC4)CC3)Cc3ccccc32)cc1 (configuration not stated)
[Q] CN(C)CCNC(=O)C1=C[C@@]2(CC1)CCN(C(=O)c1ccc(NC(=O)c3ccccc3F)cc1)c1ccccc1C2 (single isomer, unassigned)
[R] O=C(O)CNC(=O)C1=CC2(CC1)CCN(C(=O)c1ccc(NC(=O)c3ccccc3-c3ccccc3)cc1)c1ccccc1C2 (configuration not stated)
**Q:** List from greatest to least pIC50. Form entry: labels listed in requested order.
**A:** P, R, Q
(P: 7.32, R: 6.46, Q: 6.19)
